B1: C1orf55 (parent)
chain: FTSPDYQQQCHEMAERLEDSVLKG

# Variants of: B1
# TEST DETAILS: protein stability index of a GFP-peptide fusion (GPS, HEK-293T) (PSI 1-6); higher = more stable;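 also: lentivirally expressed fusions sorted by FACS into six bins by GFP to DsRed ratio, PSI derived from sequencing read proportions per bin multiplied by bin number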
# CONDITION CONTEXT: c terminus: a fixed tail appended
RESULT TYPE: protein stability index
// response body must contain only the number

// known answers, use as guide
Briefly, protein stability index measured for "FTSPEYQQQCHEMAERLEDSVLKG" : 2.41

// recorded protein stability index for "FTSTDYQQQCHEMAERLEDSVLKG" : 2.06

Record "FTSPDYQQQVHEMAERLEDSVLKG" . Reported protein stability index: 2.29

According to the records, this variant "FTSPDYYQQCHEMAERLEDSVLKG" displays protein stability index of 3.06

Continuing:
Entry "FTSPDEQQQCHEMAERLEDSVLKG" — recorded protein stability index = 5.43

Data point: "FTSPDYQQQCHEMADRLEDSVLKG" ; protein stability index = 1.82

Lab book: protein stability index of "FTSPDYQQQCHEMAERLEDSCLKG" noted as 2.12

Reported protein stability index ( "FTSPDYQQQCHEMNERLEDSVLKG" ) = 2.75

// field: protein stability index; key: "FTSPDYQQQCHTMAERLEDSVLKG" ; value = 1.47

So, "FTSPDYQQQCHEMAERLEKSVLKG" ? Its protein stability index was 1.35

The recorded protein stability index for entry "FTSPDYQQQCHEMAERLEDSVLKS" equals 1.89

For this variant ( "FTSPDYQQQCHEMAERLEDSVDKG" ), measured protein stability index is 2.48

Reference source: the supplement of paper PMC10567573
